tested on: UO-31 renal; test: NCI-60 one-dose screen, 48 h (100 = growth as untreated, 0 = no growth, -100 = all killed); conditions: 10 µM unless noted
The panel holds about 83,000 compounds, 20% with a hit somewhere; the sample as a whole holds those more often.
Reported endpoint: growth (%)

{"Sample smiles": "CCCCn1c(=O)c2c(nc3n2CCCN3CCc2ccc(OCC(=O)NCCN(CC)CC)cc2)n(CCCC)c1=O", "Unit info": "%", "Value measured": 43.2}
{"Sample smiles": "CCCCn1c(=O)c2c(nc(NCCc3ccc(O)c(O)c3)n2CCC)n(CCCC)c1=O", "Unit info": "%", "Value measured": 56.7}
{"Sample smiles": "COc1cc(/C=C/C(=O)N2CCN(C(=O)c3cc(OC)c(OC)c(OC)c3)CC2)ccc1OCCCN1C(=O)c2cccc3cccc(c23)C1=O", "Unit info": "%", "Value measured": 42.1}
{"Sample smiles": "COc1ccc(S(=O)(=O)NCCNc2nccc(-c3c(-c4cccc(F)c4)nc4sccn34)n2)cc1", "Unit info": "%", "Value measured": 20.3}
{"Sample smiles": "N#Cc1c(N)nn(C(=O)c2ccc(NC(=O)c3ccccn3)cc2)c1-c1ccc(Cl)cc1", "Unit info": "%", "Value measured": 54.3}
{"Sample smiles": "COc1cc(C(=O)/C=C/c2c(-c3ccc(F)cc3)nc3sc(C)cn23)cc(OC)c1OC", "Unit info": "%", "Value measured": 58}
{"Sample smiles": "COc1ccc2cc(-c3cc(OC)c(OC)c(OC)c3)c(=O)oc2c1", "Unit info": "%", "Value measured": 87.7}
{"Sample smiles": "COc1ccc(-c2nc3ccc4[nH]ncc4c3c3c2CCCC3)cc1B(O)O", "Unit info": "%", "Value measured": 33.7}
{"Sample smiles": "COc1cc(N=Nc2ccc(N)cc2)c(OC)cc1N=Nc1ccccc1.[Cl][Zn][Cl]", "Unit info": "%", "Value measured": 53.1}
{"Sample smiles": "CCc1ccccc1-n1c(-c2ccc(Cl)cc2)cc(-c2ccc(OC)cc2)c(C#N)c1=O", "Unit info": "%", "Value measured": 81.5}
{"Sample smiles": "COc1ccc(-c2nc3c(N)c(CO)c(C)nc3o2)cc1", "Unit info": "%", "Value measured": 88.7}
{"Sample smiles": "CCOC(=O)c1ccc(N2NC(=O)/C(=C/c3ccc([N+](=O)[O-])o3)C2=O)cc1", "Unit info": "%", "Value measured": 100}
{"Sample smiles": "COc1ccc(NC(=O)CSc2nc(C)c(C(C)=O)n2-c2ccc([N+](=O)[O-])cc2)cc1", "Unit info": "%", "Value measured": 83.6}

----------
tested on: U251 CNS; test: NCI-60 one-dose screen, 48 h; settings: 10 µM unless noted
Compounds without any hit were thinned out: in the full panel of roughly 83,000, 20% have a hit. Active and inactive are the calls of the source. Rule for the calls: active = growth percent below 10; inactive = the rest.
Labels: active, inactive

{"Molecule": "CC/C=C/C/C=C/C/C=C/C/C=C/C/C=C/C/C=C/CCC(=O)Nc1ccn([C@@H]2O[C@H](CO)[C@@H](O)C2(F)F)c(=O)n1", "Class label": "inactive"}
{"Molecule": "Cn1c(-c2c(N)n(Cc3cccnc3)c3nc(C#N)c(C#N)nc23)nc2ccccc21", "Class label": "inactive"}
{"Molecule": "OC(COc1ccccc1Cl)COc1ccccc1Cl", "Class label": "inactive"}
{"Molecule": "CN1CCN(CCCOc2ccc3nc(Nc4ccc(F)c(F)c4)ccc3c2)CC1", "Class label": "inactive"}
{"Molecule": "COCN1CCC2N(COC)CCC3N(COC)CCC1N23 (configuration not stated)", "Class label": "inactive"}
{"Molecule": "C[C@H]1[C@H]2[C@H]3CC[C@@H]4[C@@]5(C)C/C(=C/c6cccnc6)C(=O)C(C)(C)[C@@H]5CC[C@@]4(C)[C@]3(C)CC[C@]23CO[C@]1(C)[C@@H](C(=O)/C=C\\c1cccnc1)C3", "Class label": "active"}
{"Molecule": "Cc1cc(NCc2cc(Nc3ccnc4cc(Cl)ccc34)ccc2F)nc(N2CCN(c3ccccc3)CC2)n1", "Class label": "inactive"}
{"Molecule": "O=C1/C(=C/c2ccccc2)CCc2nc3ccccc3c(/C=C/c3ccc(Cl)cc3)c21", "Class label": "inactive"}
{"Molecule": "Cc1c(C(=O)NC(Cc2ccccc2)C(O)C(=O)NCc2ccc(F)cc2)[nH]c2ccccc2c1=O (configuration not stated)", "Class label": "inactive"}
{"Molecule": "CN(C)c1ccc(-c2ccc3[nH]c(=O)nc(-c4ccccc4)c3c2)cn1", "Class label": "inactive"}
{"Molecule": "O=c1c2cc(F)ccc2sc2c(Nc3cccnc3)nc3ccccc3c12", "Class label": "inactive"}
{"Molecule": "COc1cc(C(=O)/C=C/c2c(C(F)(F)F)nc3sccn23)cc(OC)c1OC", "Class label": "active"}
{"Molecule": "COc1ccc(S(=O)(=O)NCCNc2nccc(-c3c(-c4cccc(F)c4)nc4sccn34)n2)cc1", "Class label": "inactive"}
{"Molecule": "CCOc1ccccc1-n1c(CN2CCN(C(=O)COc3ccc(CNCCCCCCN4C5CCCC4CC(OC(=O)Nc4cc(C)ccc4OC)C5)cc3)CC2)nc2ccccc2c1=O (configuration not stated)", "Class label": "active"}
{"Molecule": "O=c1ccn2nc3ccccc3c2[nH]1", "Class label": "inactive"}
{"Molecule": "O=C1/C(=C/c2ccc(Br)cc2)C=C(c2ccccc2)N1CCc1ccccc1", "Class label": "active"}
{"Molecule": "CCOc1c(C#N)nnc2c(C#N)c(NC(=O)c3ccccc3)nn12", "Class label": "inactive"}
{"Molecule": "COc1ccc(C(=O)Nn2c(NCC(=O)N3c4ccccc4Sc4ccccc43)nnc2-c2ccc(O)cc2)cc1", "Class label": "inactive"}
{"Molecule": "O=C(/C=C/c1cccc(O)c1)c1cccc(-n2cc(-c3ccc4ccccc4c3)[nH]c2=O)c1", "Class label": "active"}
{"Molecule": "CCN(CC)c1ccc(C(=O)c2ccc(N(CC)CC)cc2)cc1", "Class label": "inactive"}
{"Molecule": "Cc1cc(NCCCCNc2ccnc3cc(Cl)ccc23)nc(Nc2ccc(C(=O)N3CCCCC3)cc2)n1", "Class label": "active"}
{"Molecule": "COc1cc(/C=C/C(=O)c2cccc(-n3cc(-c4ccccc4)[nH]c3=O)c2)ccc1O", "Class label": "inactive"}
{"Molecule": "CCc1c2c(nc3ccc(OC(=O)OCc4ccc(B5OC(C)(C)C(C)(C)O5)cc4)cc13)-c1cc3c(c(=O)n1C2)COC(=O)[C@]3(O)CC", "Class label": "active"}
{"Molecule": "O=C(CCc1nnc(CN(c2ccccc2)c2ccccc2)o1)c1nc2ccccc2[nH]1", "Class label": "inactive"}
{"Molecule": "CCC(CO)Nc1nc2ccc(Cl)cc2c2ccccc12 (configuration not stated)", "Class label": "inactive"}
{"Molecule": "CCN1C(=O)N(CC)C2Nn3c(s/c(=C\\c4ccc(Cl)cc4Cl)c3=O)=NC21 (configuration not stated)", "Class label": "inactive"}
{"Molecule": "CN(c1ccccc1)c1ccc2c(c1)OCCC21CC1Nc1cnccc1C(=O)O (configuration not stated)", "Class label": "inactive"}

----------
test system: NCI-H460 lung; test: NCI-60 one-dose screen, 48 h; conditions: 10 µM unless noted
Compounds without any hit were thinned out: in the full panel of roughly 83,000, 20% have a hit. Activity calls are given as the source filed them. Rule for the calls: active = growth percent below 10; inactive = the rest.
Labels: active, inactive

{"Molecule": "COc1ccc(-c2csc(C3=C(O)CN(CCCN4CCCC4=O)C3=N)n2)cc1OC", "Study system": "NCI-H460 lung", "Class label": "inactive"}
{"Molecule": "COc1ccc(NC(=O)CSc2nc(C)c(C(C)=O)n2-c2ccc(Cl)cc2)cc1", "Study system": "NCI-H460 lung", "Class label": "inactive"}
{"Molecule": "COc1cc2c(cc1-c1c(C)noc1C)ncc1nc(C3CCCCC3)n(C3CCC(OC(F)F)CC3)c12 (stereo unspecified)", "Study system": "NCI-H460 lung", "Class label": "inactive"}
{"Molecule": "COc1ccc(/C=N/C2=C(C#N)C(c3ccc(OC)cc3)c3ccc4ccccc4c3O2)cc1 (stereo unspecified)", "Study system": "NCI-H460 lung", "Class label": "inactive"}
{"Molecule": "CC1=CN2C(=O)C3C4=C(CCCC4)SC3N=C2CN1c1c(C)cccc1C (stereo unspecified)", "Study system": "NCI-H460 lung", "Class label": "inactive"}
{"Molecule": "COc1ccc(S(=O)(=O)NCCNc2nccc(-c3c(-c4cccc(F)c4)nc4sccn34)n2)cc1", "Study system": "NCI-H460 lung", "Class label": "inactive"}
{"Molecule": "O=c1[nH][n+](-c2ccc(Cl)cc2)no1", "Study system": "NCI-H460 lung", "Class label": "inactive"}
{"Molecule": "CC(=O)OC[C@H]1OC(Sc2sc(C(=O)c3ccc(Br)cc3)c(N)c2-c2nc3ccccc3s2)[C@H](OC(C)=O)[C@@H](OC(C)=O)[C@@H]1OC(C)=O (stereo partly specified)", "Study system": "NCI-H460 lung", "Class label": "inactive"}
{"Molecule": "c1coc(-c2c3ccc(=[N+]4CCCCC4)cc-3oc3cc(N4CCCCC4)ccc23)c1", "Study system": "NCI-H460 lung", "Class label": "active"}
{"Molecule": "C[C@@]1(CCC#N)[C@H]2CC[C@@H]3[C@H]4[C@H](C(=O)/C=C/c5cccnc5)CC[C@]4(C#N)CC[C@@]3(C)[C@]2(C)CC[C@H]1C(=O)/C=C/c1cccnc1", "Study system": "NCI-H460 lung", "Class label": "inactive"}
{"Molecule": "COc1cc(C(=O)/C=C/c2c(-c3ccc(F)cc3)nc3sc(C)cn23)cc(OC)c1OC", "Study system": "NCI-H460 lung", "Class label": "inactive"}
{"Molecule": "COc1ccc(C(=O)Nn2c(NCC(=O)N3c4ccccc4Sc4ccccc43)nnc2-c2ccc(O)cc2)cc1", "Study system": "NCI-H460 lung", "Class label": "inactive"}
{"Molecule": "CCN(CC)CCN1CC(O)=C(c2nc(-c3ccc(Cl)cc3)cs2)C1=N", "Study system": "NCI-H460 lung", "Class label": "active"}
{"Molecule": "Cc1c2c(c(C)c3c1oc1cc(O)ccc13)C(=O)N(CCN1CCCCC1)C2=O", "Study system": "NCI-H460 lung", "Class label": "inactive"}
{"Molecule": "N#Cc1nc2c(S(=O)(=O)c3ccc(Cl)cc3)c(N)n(Nc3cccc(Cl)c3)c2nc1C#N", "Study system": "NCI-H460 lung", "Class label": "inactive"}
{"Molecule": "c1c[nH]c(CNC2CCCCC2)c1", "Study system": "NCI-H460 lung", "Class label": "inactive"}
{"Molecule": "COc1cc(/C=N/Nc2ncc(-c3cc4cc5c(cc4o3)OCO5)s2)cc(OC)c1OC", "Study system": "NCI-H460 lung", "Class label": "inactive"}
{"Molecule": "O=[N+]([O-])c1ccc(N2c3ccncc3Sc3ccncc32)cc1", "Study system": "NCI-H460 lung", "Class label": "inactive"}
{"Molecule": "CC1(c2ccccc2)NC(=O)N(NC(=O)CSc2nc(-c3cccs3)nc3ccccc23)C1=O (stereo unspecified)", "Study system": "NCI-H460 lung", "Class label": "inactive"}
{"Molecule": "O=C(NCCCNc1cc(-c2cn(-c3ccccc3)nc2-c2cccc(O)c2)ccn1)c1cccc(O)c1", "Study system": "NCI-H460 lung", "Class label": "inactive"}
{"Molecule": "CNC(=O)CCN1CCN(CC/C=C2\\c3ccccc3Sc3ccc(Cl)cc32)CC1", "Study system": "NCI-H460 lung", "Class label": "inactive"}
{"Molecule": "Cc1ccc(NS(=O)(=O)c2ccc3c(c2)C(=O)CC(c2ccc(C(=O)C(C)C)cc2)N3)cc1C (stereo unspecified)", "Study system": "NCI-H460 lung", "Class label": "inactive"}
{"Molecule": "Cc1c(O)cc(-c2cnc(N/N=C\\c3ccc(Cl)cc3)s2)c(O)c1C", "Study system": "NCI-H460 lung", "Class label": "inactive"}
{"Molecule": "c1cc2ccc3cc2cc1CNCCOCCNCc1ccc2ccc(cc2c1)CNCCOCCNC3", "Study system": "NCI-H460 lung", "Class label": "active"}
{"Molecule": "O=c1c2cc(F)ccc2sc2c(Nc3cccnc3)nc3ccccc3c12", "Study system": "NCI-H460 lung", "Class label": "inactive"}
{"Molecule": "O=C(c1ccc(Nc2nccc(NCCCCNc3ccnc4cc(Cl)ccc34)n2)cc1)N1CCCCC1", "Study system": "NCI-H460 lung", "Class label": "inactive"}
{"Molecule": "O=C1Nc2ccccc2/C1=C/c1cn(C(=O)c2c(Cl)cccc2Cl)c2ccccc12", "Study system": "NCI-H460 lung", "Class label": "inactive"}
{"Molecule": "Cc1cc(NCCCCNc2ccnc3cc(Cl)ccc23)nc(Nc2ccc(C(=O)N3CCCCC3)cc2)n1", "Study system": "NCI-H460 lung", "Class label": "active"}
{"Molecule": "COc1ccc(-c2nc3c(N)c(CO)c(C)nc3o2)cc1", "Study system": "NCI-H460 lung", "Class label": "inactive"}
{"Molecule": "Clc1cc(Cl)cc(Nc2ccc3cc(OCCCN4CCOCC4)ccc3n2)c1", "Study system": "NCI-H460 lung", "Class label": "inactive"}
{"Molecule": "Cc1ccc(N2CCN(C(=S)c3cccs3)CC2)cc1", "Study system": "NCI-H460 lung", "Class label": "inactive"}
